Ref: patent US9670204B2

target: hENPP2 (UniProtKB/SwissProt Q13822) (Homo sapiens (Human), UniProt Q13822); assay: hENPP2 biochemical assay, LPC as substrate; conditions: LPC (palmitoyl 16:0) as substrate
pIC50: −log10 of the molar value.
measuredProperty: pIC50

Completed entries (count: 5):
compoundStructure: CCc1nc2ccc(N3CCS(=O)(=O)CC3)cn2c1N(C)c1nc(-c2ccc(Cl)cc2)cs1
measuredProperty: pIC50
dataValue: < 6.00
--
compoundStructure: CCc1nc2ccc(C3CCN(CC(=O)N4CC(O)C4)CC3)cn2c1N(C)c1nc(-c2ccc(F)cc2)c(C#N)s1
measuredProperty: pIC50
dataValue: 7.00 to 11.00
--
compoundStructure: CCc1nc2ccc(N3CCN(C(=O)OC(C)(C)C)CC3=O)cn2c1N(C)c1nc(-c2ccc(Cl)cc2)cs1
measuredProperty: pIC50
dataValue: < 6.00
--
compoundStructure: CCc1nc2ccc(C3=CCN(S(=O)(=O)CCCO)CC3)cn2c1N(C)c1nc(-c2ccc(F)cc2)cs1
measuredProperty: pIC50
dataValue: 6.00 to 6.30
--
compoundStructure: CCc1nc2ccc(C3=CCN(S(C)(=O)=O)CC3)cn2c1N(C)c1nc(-c2ccc(F)c(F)c2)cs1
measuredProperty: pIC50
dataValue: < 6.00

[ask] Which pIC50 is listed for "CCc1nc2ccc(C3=CCN(C(=O)Nc4cccs4)CC3)cn2c1N(C)c1nc(-c2ccc(F)cc2)cs1" ?
[reply] < 6.00

[ask] Repeat for the following compound: "CCc1nc2ccc(N3CCN(C(=O)OC(C)(C)C)CC3=O)cn2c1N(C)c1nc(-c2ccc(F)cc2)cs1"
[reply] < 6.00

[ask] Again, but for "CCc1nc2ccc(C3CCN(CC(=O)NC4CC4)CC3)cn2c1N(C)c1nc(-c2ccc(F)cc2)cs1"
[reply] < 6.00

[ask] What would you report for "CCc1nc2ccc(N3CCN(CC(=O)N4CCC4)CC3)cn2c1N(C)c1nc(-c2ccc(F)cc2)cs1" ?
[reply] 7.00 to 11.00

[ask] Similarly, "CCc1nc2ccc(N3CCN(C(=O)[C@H](C)O)CC3)cn2c1N(C)c1nc(-c2ccc(F)cc2)cs1" ?
[reply] < 6.00
